- ASSAY SUMMARY: in vivo
- STATED CONDITIONS: po, 18.75 mg, Cmax
Counter-ions that a name gives are not always drawn.
METRIC: Cmax

MOLECULE	METRIC	RESULT
COC(=O)[C@H](c1ccccc1Cl)N1CCc2sccc2C1 [Clopidogrel, S-(+)-clopidogrel hydrogen sulfate, reference compound]	Cmax	134 ng/mL

###

- ASSAY SUMMARY: in vivo
- STATED CONDITIONS: po, 18.75 mg, t1/2 (elimination half-life)
Counter-ions that a name gives are not always drawn.

MOLECULE	half-life / h
COC(=O)[C@H](c1ccccc1Cl)N1CCc2sccc2C1 [Clopidogrel, S-(+)-clopidogrel hydrogen sulfate, reference compound]	5.4

Cited source: paper PMC5557681
